These data points were gathered from patent US11433053B2.

experimental-target: human LSD1 (Homo sapiens (Human), UniProt O60341)
pIC50: −log10 of the molar value.
experimental-readout: pIC50

Request: human LSD1 (Homo sapiens (Human), UniProt O60341) / pIC50 / c1ccc(C2C[C@@H]2NCC2(c3noc(-c4ccccn4)n3)CCC2)cc1 (stereo partly shown) : value?
Response: ≥ 7.30

Request: Try the molecule N[C@H]1CC[C@H](Cc2nc(C3(CN[C@@H]4C[C@H]4c4ccccc4)CC3)no2)CC1
Response: 7.00 to 7.30

Request: Same thing, different molecule: c1ccc([C@H]2C[C@@H]2NCC2(c3noc([C@@H]4CCCNC4)n3)CC2)cc1
Response: 7.00 to 7.30

Request: Repeat for the following molecule: C/C(=N\NC(=O)c1cccc(S(=O)(=O)N2CCOCC2)c1)c1cc(Cl)ccc1O [HCI-2509, reference compound]
Response: ≥ 7.30

---

pIC50: −log10 of the molar value.
Quick record: pIC50, human LSD1 (Homo sapiens (Human)).

Worked cases, pIC50 given:
compound | value-reported
N[C@H]1CC[C@H](c2nc(C3(CN[C@@H]4C[C@H]4c4ccccc4)CCC3)no2)CC1 | 6.30 to 7.00
CC(=O)N1CCC(c2nc(C3(CN[C@H]4C[C@@H]4c4ccccc4)CC3)no2)CC1 | 7.00 to 7.30
FC(F)(F)c1ccnc(-c2nc(C3(CN[C@H]4CC4c4ccccc4)CCC3)no2)c1 (stereo partly shown) | ≥ 7.30
O=C(O)c1ccc(CN2CCC3(CC2)CC(c2nc(C4(CN[C@H]5CC5c5ccccc5)CC4)no2)C3)cc1 (stereo partly shown) | 6.30 to 7.00
c1ccc([C@H]2C[C@@H]2NCC2(c3cc([C@H]4CCCNC4)on3)CCC2)cc1 | 7.00 to 7.30
c1ccc(C2C[C@@H]2NCC2(CN[C@@H]3CC3c3ccccc3)CC2)cc1 (stereo partly shown) | ≥ 7.30
N[C@@H]1CCC[C@@H](c2nc(C3(CN[C@@H]4C[C@H]4c4ccccc4)CC3)no2)C1 | 7.00 to 7.30
N#Cc1ccc(C(=O)NC2(CN[C@H]3CC3c3ccccc3)CCC2)cc1 (stereo partly shown) | ≥ 7.30
N#Cc1ccc(-c2nc(C3(CN[C@H]4CC4c4ccccc4)CCC3)no2)c(F)c1 (stereo partly shown) | ≥ 7.30
N#Cc1cc(F)cc(-c2nc(C3(CN[C@H]4CC4c4ccccc4)CCC3)no2)c1 (stereo partly shown) | ≥ 7.30

Request: Return pIC50 measured with human LSD1 (Homo sapiens (Human)) given this compound: C[C@@H]1CCCN1CC1(CN[C@H]2CC2c2ccccc2)CC1 (stereo partly shown)
Response: ≥ 7.30

Request: # repeat for NC1CCN(c2nc(C3(CN[C@@H]4C[C@H]4c4ccccc4)CC3)no2)CC1
Response: 7.00 to 7.30

Request: Again, but for Fc1ccccc1-c1nc(C2(CN[C@H]3CC3c3ccccc3)CC2)no1 (stereo partly shown)
Response: ≥ 7.30
